# Tested on: SF-295 CNS
# ASSAY_COMMENT: NCI-60 one-dose screen, 48 h
# STATED_CONDITIONS: 10 µM unless noted
The panel holds about 83,000 compounds, 20% with a hit somewhere; the sample as a whole holds those more often. Active and inactive are the calls of the source. The calls were made as follows: active = growth percent below 10; inactive = the rest.
Mark one answer only. Choices: class 1 (active), class 0 (inactive)

Ask | Returns: the outcome recorded for Cn1c(=O)c2c(nc(Nc3cc(=O)[nH]c(=O)[nH]3)n2Cc2ccccc2)n(C)c1=O in this assay.
Reply | class 0

Ask | Returns: the outcome recorded for Nc1ccc(-c2ccc(N)c(Br)c2)cc1Br in this assay.
Reply | class 0

Ask | Returns: the outcome recorded for O=C(CN1C(=O)S/C(=C\C(Cl)=C\c2ccccc2)C1=O)NCCCn1ccnc1 in this assay.
Reply | class 0

Ask | Returns: the outcome recorded for C=C1C(=O)O[C@H]2[C@H]1CC/C(CNS(=O)(=O)c1ccc3ccccc3c1)=C\CC[C@@]1(C)O[C@@H]21 in this assay.
Reply | class 0

Ask | Returns: the outcome recorded for COc1cc(-c2nn(-c3cccc(NC(=O)CCN4CCN(C)CC4)c3)cc2-c2ccncc2)ccc1Cl in this assay.
Reply | class 1

Cited source for all entries: PubChem BioAssay (NCI)
